For each entry below, report its logP value.
Where a SMILES comes first, the peptide text is derived from it.
The answer should be written as a number, with no unit following it.

Ask: Given COc1ccc2c(c1)C(=O)N(CCO[N+](=O)[O-])CO2 , state its recorded logP.
Reply: 2.07

Ask: Given CC(C)Nc1nc(N)nc(O)n1 , state its recorded logP.
Reply: 1.27

Ask: Given CCC(C)C(N)C(=O)NC(C(=O)NC(C(=O)NC(C(=O)NC(C(=O)O)C(C)CC)C(C)C)C(C)C)C(C)C (stereo not given) (H-IVVVI-OH; configuration not given here) , state its recorded logP.
Reply: -0.89

Ask: Given O=C(NC1CCCCCC1)NS(=O)(=O)c1cnccc1NC1CCCCC1 , state its recorded logP.
Reply: 4.62

Ask: Given CC(C)C(N)C(=O)N1CCCC1C(=O)NCC(=O)NC(C(=O)O)C(C)C (stereo not given) (H-VPGV-OH; configuration not given here) , state its recorded logP.
Reply: -2.83

Ask: Given CCNN=Nc1ccc(C(N)=O)cc1 , state its recorded logP.
Reply: 1.19

Ask: Given O=C1CCC(=O)N1c1cccc(Cl)c1Cl , state its recorded logP.
Reply: 0.9

Ask: Given CC(C)CC(NC(=O)C(N)Cc1c[nH]c2ccccc12)C(=O)NC(Cc1ccccc1)C(=O)NC(C)C(=O)NC(C)C(=O)O (stereo not given) (H-WLFAA-OH; configuration not given here) , state its recorded logP.
Reply: -0.32

Ask: Given COc1ccc(C2Cc3cc(SC)ccc3N(CCN(C)C)C(=O)C2OC(C)=O)cc1 (stereo not given) , state its recorded logP.
Reply: 4

Ask: Given COC(=O)C(C)NP(=O)(OCC1C=CC(n2cc(C)c(=O)[nH]c2=O)O1)Oc1ccc(OC(F)(F)F)cc1 (stereo not given) , state its recorded logP.
Reply: 1.86

Ask: Given CCNC(=NC#N)NS(=O)(=O)c1cnccc1NC1CCCCCCC1 , state its recorded logP.
Reply: 2.05

Ask: Given CO[C@H]1C=CO[C@@]2(C)Oc3c(C)c(O)c4c(c3C2=O)C2=NC3(CCN(CC(C)C)CC3)NC2=C(NC(=O)C(C)=CC=C[C@H](C)[C@H](O)[C@@H](C)[C@@H](O)[C@@H](C)[C@H](OC(C)=O)[C@@H]1C)C4=O , state its recorded logP.
Reply: 4.5

Ask: Given COc1cccc(CNc2ncnc3nc[nH]c23)c1 , state its recorded logP.
Reply: 2.1

Ask: Given CC1CC(=O)NN=C1c1ccc(-n2ccnc2)cc1 (stereo not given) , state its recorded logP.
Reply: 1.29

Ask: Given O=CC(=C(Cl)C(=O)O)C(Cl)Cl , state its recorded logP.
Reply: 1.13

Ask: Given Cn1c([N+](=O)[O-])cnc1C=NNC(N)=S , state its recorded logP.
Reply: 0.65

Ask: Given c1nc(N2CCCC2)c2[nH]cnc2n1 , state its recorded logP.
Reply: 1.68

Ask: Given COc1ccc(CCNCC(O)COc2ccc(-c3nc(C)c(C)[nH]3)cc2)cc1OC (stereo not given) , state its recorded logP.
Reply: 3.22

Ask: Given CCNc1nc(O)nc(NC(C)(C)C)n1 , state its recorded logP.
Reply: 3.53

Ask: Given CC(CO)NC(=O)Cn1ccnc1[N+](=O)[O-] (stereo not given) , state its recorded logP.
Reply: -1.02

src = the OPERA property sets (Mansouri et al. 2018)
